Molecular target: Glutathione S-transferase omega-1 (Homo sapiens, UniProt P78417)
Sequence (P78417 whole entry): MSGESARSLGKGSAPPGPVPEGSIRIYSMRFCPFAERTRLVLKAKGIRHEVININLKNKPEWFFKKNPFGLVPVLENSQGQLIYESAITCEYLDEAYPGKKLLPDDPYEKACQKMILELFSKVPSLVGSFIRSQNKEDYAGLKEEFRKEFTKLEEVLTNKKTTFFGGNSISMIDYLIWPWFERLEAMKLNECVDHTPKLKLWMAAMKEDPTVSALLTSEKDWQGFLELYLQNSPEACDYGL
Assay: Inhibition of GSTO1-1 (unknown origin) pre-incubated for 1 hr before GSH addition by CDNB-GSH conjugation assay
MEASUREMENT_TYPE: IC50 (nM)
Answers are plain numbers, in nM.

## Input Can you look up the measured IC50 of CC(C)C[C@H](NC(=O)[C@H](CCc1ccccc1)NC(=O)CN1CCOCC1)C(=O)N[C@@H](Cc1ccccc1)C(=O)N[C@@H](CC(C)C)C(=O)[C@@]1(C)CO1 for me?
## Output 150

---

Molecular target: UniProt P78417
Test: Inhibition of human GSTO1-1 by MMA (V) reductase assay
Give IC50 for every item shown.
Numbers only, in µM.

O=[N+]([O-])c1ccc(Cl)c([N+](=O)[O-])c1 [DINITROCHLOROBENZENE] : 900
Cc1c(C)c2c(c(C)c1OC(=O)CCC(=O)O)CC[C@@](C)(CCC[C@H](C)CCC[C@H](C)CCCC(C)C)O2 [(+)-ALPHA-TOCOPHERYL SUCCINATE] : 4
C=C(CC)C(=O)c1ccc(OCC(=O)O)c(Cl)c1Cl [ETHACRYNIC ACID] : 25

Consider now this further compound.
## Input Requested read-out: IC50. Entry: C[C@H](CCC(=O)O)[C@H]1CC[C@H]2[C@@H]3CC[C@@H]4C[C@H](O)CC[C@]4(C)[C@H]3C[C@H](O)[C@]12C
## Output 1020

Where these numbers come from: ChEMBL document CHEMBL4196096
